Quick reference for IC50 among some compounds
# Test system: COLO205 colon adenocarcinoma cells (B-Raf V600E mutation)
# TEST NAME: COLO205 cell growth inhibition (ATPlite)
# Type: cell-based
# TEST PARAMETERS: Homo sapiens, COLO 205, 72 h, 3 days

Here are 5 compounds together with their reported answers.
• O=C(c1c(F)ccc(NS(=O)(=O)N2CCCC2)c1F)c1c[nH]c2ncc(-c3ccnc(N4CCOCC4)n3)cc12 = < 1 µM
• CCN(C)S(=O)(=O)Nc1cccc(C(=O)c2c[nH]c3ncc(-c4ccc(C#N)nc4)cc23)c1F = > 1 µM
• O=C(c1cccc(NS(=O)(=O)N2CCCC2)c1F)c1c[nH]c2ncc(-c3ccc(C4(C(=O)O)CC4)cc3)cc12 = > 1 µM
• CCN(C)S(=O)(=O)Nc1cccc(C(=O)c2c[nH]c3ncc(C#N)cc23)c1F = > 1 µM
• CCC(C)S(=O)(=O)Nc1cccc(C(=O)c2c[nH]c3ncc(-c4cnc(C(C)C)nc4)cc23)c1F (centres unmarked) = < 1 µM

Requested read-out IC50, target or system COLO205 colon adenocarcinoma cells (B-Raf V600E mutation), entry CCC(C)S(=O)(=O)Nc1cccc(C(=O)c2c[nH]c3ncc(-c4cnc(C5CC5)nc4)cc23)c1F (centres unmarked)
< 1 µM

Look up IC50 with COLO205 colon adenocarcinoma cells (B-Raf V600E mutation) for this compound: CCN(C)S(=O)(=O)Nc1cccc(C(=O)c2c[nH]c3ncc(-c4cnc(OC)nc4)cc23)c1F
< 1 µM

Any idea what IC50 came out for CCN(C)S(=O)(=O)Nc1ccc(F)c(C(=O)c2c[nH]c3ncc(-c4cncs4)cc23)c1F on COLO205 colon adenocarcinoma cells (B-Raf V600E mutation)?
< 1 µM

API: value(readout= IC50, system= COLO205 colon adenocarcinoma cells (B-Raf V600E mutation), query= CN(CC(F)(F)F)S(=O)(=O)Nc1ccc(F)c(C(=O)c2c[nH]c3ncc(-c4cnc(C5CC5)nc4)cc23)c1F )
< 1 µM

Quick check: IC50 on COLO205 colon adenocarcinoma cells (B-Raf V600E mutation), item CN(C)S(=O)(=O)Nc1cccc(C(=O)c2c[nH]c3ncc(-c4ccc(C#N)nc4)cc23)c1F ?
> 1 µM

Hi! What's the reported IC50 for O=C(c1c(F)ccc(NS(=O)(=O)N2CC[C@H](F)C2)c1F)c1c[nH]c2ncc(-c3cnc(C4CC4)nc3)cc12 on COLO205 colon adenocarcinoma cells (B-Raf V600E mutation)?
< 1 µM
